Target: polypeptide consisting of the amino acid sequence of SEQ ID NO: 2 (Homo sapiens)
Sequence (Q8TDV5 whole entry): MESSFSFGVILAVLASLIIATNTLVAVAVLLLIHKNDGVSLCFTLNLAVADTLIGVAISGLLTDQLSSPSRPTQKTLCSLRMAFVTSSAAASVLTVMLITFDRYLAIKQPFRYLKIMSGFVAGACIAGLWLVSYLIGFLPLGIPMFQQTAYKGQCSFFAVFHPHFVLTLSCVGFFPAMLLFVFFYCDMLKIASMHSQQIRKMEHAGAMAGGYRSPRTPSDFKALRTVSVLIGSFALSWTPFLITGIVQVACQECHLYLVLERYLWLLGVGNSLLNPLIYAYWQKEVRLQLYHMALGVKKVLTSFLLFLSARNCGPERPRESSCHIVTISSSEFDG
Assay: CRE-luciferase reporter screening in transfected 293-EBNA cells (Example 7)
Details: 293-EBNA cells transfected with pEF-BOS-NA and pCRE-Luc; 5-6 hours incubation; read-out: EC50 value (increase of reporter activity)
Experimental: The pEF-BOS-NA plasmid used in Example 6 was also used in the present Example. 293-EBNA cells, (1×10^4 cells/well) were seeded on a 96-well plate coated with collagen, and cultured overnight in a Dulbecco modified Eagles' medium (DMEM) containing 10% fetal calf serum (FCS). […] A luciferase activity of the lysate was measured by a commercially available measuring kit (PicaGene Luminescent kit; Toyo Ink Mfg.) and a measuring apparatus (ML3000 microtiter plate luminometer; Dynatech Laboratories).
MEASURED_QUANTITY: EC50 (µM)

1. O=C(SCCc1ccncc1)c1ccccc1 :: 3.2
